# maps each entry to its BMR20TCDD Liver Cyp1a1 mRNA
Tested on: Cyp1a1 mRNA in liver
Assay: Cyp1a1 gene expression in liver (real-time PCR)
Assay type: in vivo, female C57BL/6 mice
Conditions: dose metric Adm dose; 3 days after single oral dose
Protocol: Animals. Eight-week-old female C57BL/6 mice (Harlan laboratories, Venray, the Netherlands) were randomly assigned to treatment groups (six animals per group) and allowed to acclimate for 1.5 weeks. […] RNA isolation and quantitative real-time polymerase chain reaction (PCR). […] Purity and concentration of the isolated RNA was determined by measuring the absorbance ratio at 260/280 nm and 230/260 nm with a Nanodrop 2000 spectrophotometer (Thermo Scientific, Asheville, NC, USA). […]
Express the result in µg/kg BW but write the number alone.

{"columns": ["Compound", "BMR20TCDD Liver Cyp1a1 mRNA (µg/kg BW)"],
 "data": [
  ["Clc1cc2c(cc1Cl)Oc1c(cc(Cl)c(Cl)c1Cl)O2", 1.25],
  ["Clc1cc2c(cc1Cl)Oc1cc(Cl)c(Cl)cc1O2 [TCDD, 2,3,7,8-tetrachlorodibenzodioxin, reference compound]", 0.64]
]}

Attention now turns to another entry.
Exam item: Fill in BMR20TCDD Liver Cyp1a1 mRNA for Clc1ccc(-c2cc(Cl)c(Cl)c(Cl)c2)cc1Cl tested with Cyp1a1 mRNA in liver.
Marked response: 558

###

Tested on: Cyp1a1 mRNA in PBLs
Test: Cyp1a1 gene expression in peripheral blood lymphocytes
Type: in vivo, female C57BL/6 mice
Conditions: relative to TCDD; dose metric Adm dose (µg/kg BW)
Measured Attribute: REP PBLs Cyp1a1 mRNA
No unit in the answer, please; the number alone is enough.

Illustrative cases are given below, each with its answer.
{"columns": ["Compound", "Measured Attribute", "Quantitative Result"],
 "data": [
  ["Clc1cc2c(cc1Cl)Oc1c(cc(Cl)c(Cl)c1Cl)O2 [PeCDD, 1,2,3,7,8-pentachlorodibenzodioxin]", "REP PBLs Cyp1a1 mRNA", 0.7],
  ["Clc1cc2c(cc1Cl)Oc1cc(Cl)c(Cl)cc1O2 [TCDD, 2,3,7,8-tetrachlorodibenzodioxin, reference compound]", "REP PBLs Cyp1a1 mRNA", 1],
  ["Clc1ccc(-c2cc(Cl)c(Cl)c(Cl)c2Cl)cc1Cl [PCB-156, 2,3,3´,4,4´,5-hexachlorobiphenyl]", "REP PBLs Cyp1a1 mRNA", 0.00003]
]}

Next:
Exam item: Query REP PBLs Cyp1a1 mRNA for Clc1ccc(-c2cc(Cl)c(Cl)c(Cl)c2)cc1Cl [PCB-126, 3,3´,4,4´,5-pentachlorobiphenyl]
Marked response: 0.04

###

Test system: Cyp1a1 mRNA in PBLs
Test: Cyp1a1 gene expression in peripheral blood lymphocytes
Format: in vivo, female C57BL/6 mice
Conditions: dose metric Syst plasma; 3 days after single oral dose
Measured Attribute: BMR20TCDD PBLs Cyp1a1 mRNA

The following compounds have reported results that may help.
{"columns": ["Compound", "BMR20TCDD PBLs Cyp1a1 mRNA"],
 "data": [
  ["Clc1ccc(-c2cc(Cl)c(Cl)c(Cl)c2Cl)cc1Cl [PCB-156, 2,3,3´,4,4´,5-hexachlorobiphenyl]", "2,359,081 ng/g lipid"],
  ["Clc1cc2c(cc1Cl)Oc1cc(Cl)c(Cl)cc1O2 [TCDD, 2,3,7,8-tetrachlorodibenzodioxin, reference compound]", "50.6 ng/g lipid"],
  ["Clc1ccc(-c2cc(Cl)c(Cl)c(Cl)c2)cc1Cl [PCB-126, 3,3´,4,4´,5-pentachlorobiphenyl]", "847 ng/g lipid"]
]}

Exam item: Assign BMR20TCDD PBLs Cyp1a1 mRNA to the following record: Clc1cc2c(cc1Cl)Oc1c(cc(Cl)c(Cl)c1Cl)O2 [PeCDD, 1,2,3,7,8-pentachlorodibenzodioxin]
Marked response: 34.0 ng/g lipid
